molecular target: T1, human PD-1 expressed on cells (human, UniProt Q15116 25-288); test: flow cytometry competition: blockade of human PD-L2-hFc binding to CHO-K1 cells expressing human PD-1; PE goat anti-human IgG
T1 construct: the transgene used on the cells is not tied to it by number; also called hPD-1; CHO.hPD-1
T1 sequence (Q15116 25-288 limits assumed): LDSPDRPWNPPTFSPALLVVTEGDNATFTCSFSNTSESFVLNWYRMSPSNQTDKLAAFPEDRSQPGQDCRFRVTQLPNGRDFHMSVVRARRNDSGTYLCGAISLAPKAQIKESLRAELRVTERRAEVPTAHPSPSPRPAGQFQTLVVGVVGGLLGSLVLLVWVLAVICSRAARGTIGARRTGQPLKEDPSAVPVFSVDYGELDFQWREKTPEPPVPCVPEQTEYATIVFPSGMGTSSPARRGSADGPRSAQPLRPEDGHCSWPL
outcome measure: IC50 (read off the curve)

Example entries begin here.
binder	IC50 (read off the curve)
F023701190 (1PD102C12 (E1D, L11V, A14P, W52aV, A74S, K83R, I89L, W100aF)-HIS6) (VHH, monovalent anti-human PD-1 Nanobody variant; also called Enhanced SO 1PD102C12 monomer; not shown: C-terminal HIS6 tag) VHH: DVQLVESGGGVVQPGGSLRLSCAASGSIASIHAMGWFRQAPGKEREFVAVITVSGGITYYADSVKGRFTISRDNSKNTVYLQMNSLRPEDTALYYCAGDKHQSSFYDYWGQGTLVTVSS	~0.9 nM
F023700275 (1PD102C12(A14P, A74S, K83R)-FLAG3-HIS6) (VHH, monovalent anti-human PD-1 Nanobody, parent of F023700706) VHH: EVQLVESGGGLVQPGGSLRLSCAASGSIASIHAMGWFRQAPGKEREFVAVITWSGGITYYADSVKGRFTISRDNSKNTVYLQMNSLRPEDTAIYYCAGDKHQSSWYDYWGQGTLVTVSS	~0.3 nM
F023701192 (1PD102C12 (E1D, L11V, A14P, W52aV, N73Q, A74S, K83R, I89L, W100aF)-HIS6) (VHH, monovalent anti-human PD-1 Nanobody variant; not shown: C-terminal HIS6 tag) VHH: DVQLVESGGGVVQPGGSLRLSCAASGSIASIHAMGWFRQAPGKEREFVAVITVSGGITYYADSVKGRFTISRDQSKNTVYLQMNSLRPEDTALYYCAGDKHQSSFYDYWGQGTLVTVSS	~0.9 nM
F023701193 (1PD102C12 (E1D, L11V, A14P, W52aV, N73P, A74S, K83R, I89L, W100aF)-HIS6) (VHH, monovalent anti-human PD-1 Nanobody variant; not shown: C-terminal HIS6 tag) VHH: DVQLVESGGGVVQPGGSLRLSCAASGSIASIHAMGWFRQAPGKEREFVAVITVSGGITYYADSVKGRFTISRDPSKNTVYLQMNSLRPEDTALYYCAGDKHQSSFYDYWGQGTLVTVSS	~0.9 nM
F023700706 (1PD102C12 (L11V, A14P, A74S, K83R, I89L)-FLAG3-HIS6) (VHH, also called SO 1PD102C12 monomer) VHH: EVQLVESGGGVVQPGGSLRLSCAASGSIASIHAMGWFRQAPGKEREFVAVITWSGGITYYADSVKGRFTISRDNSKNTVYLQMNSLRPEDTALYYCAGDKHQSSWYDYWGQGTLVTVSS	~0.6 nM

Could you tell me which IC50 (read off the curve) is on file for F023700929 (1PD102C12 (L11V, A14P, A74S, K83R, I89L)-HIS6) (VHH, not shown: C-terminal HIS6 tag) VHH: EVQLVESGGGVVQPGGSLRLSCAASGSIASIHAMGWFRQAPGKEREFVAVITWSGGITYYADSVKGRFTISRDNSKNTVYLQMNSLRPEDTALYYCAGDKHQSSWYDYWGQGTLVTVSS ?
~1 nM
